Target: T1, IFF05588
T1 chain: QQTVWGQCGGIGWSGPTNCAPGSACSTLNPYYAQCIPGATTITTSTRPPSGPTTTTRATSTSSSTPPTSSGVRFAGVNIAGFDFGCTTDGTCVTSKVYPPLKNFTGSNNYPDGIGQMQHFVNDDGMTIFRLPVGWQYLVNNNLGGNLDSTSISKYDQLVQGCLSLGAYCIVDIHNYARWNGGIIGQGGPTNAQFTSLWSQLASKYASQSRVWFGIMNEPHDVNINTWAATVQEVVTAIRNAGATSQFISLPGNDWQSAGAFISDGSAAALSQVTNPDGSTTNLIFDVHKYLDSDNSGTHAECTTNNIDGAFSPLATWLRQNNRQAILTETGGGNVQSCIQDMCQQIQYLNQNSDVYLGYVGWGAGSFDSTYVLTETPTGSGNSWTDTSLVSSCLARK
Listed here are proteins together with their documented Relative late peak area (reverse phase chromatography, 24 h).
OBSERVATION TYPE: Relative late peak area (reverse phase chromatography, 24 h)

[[record]]
protein = "IFF21379 (protein) QLDKPALTSNLDYLLEGNTNNLPRNGGPYWGKWADGLMPADCKSIAESQGLNPTDFEVWDIFYNDCQDGWSFCRHKDSSDSFETLVETFGRVPVRMRSWVRHILTIPGPNWAFNSNGNIALSGTTSSNLDVALHETAHSLDLLGAYGNGALSSMQEWLNAYNRDSHVPDEYARSNQVENVAQNTVVAIYDKVVPGGFPGIQPNYQRIQNQYTLVQAKAGNQILPGGTCDRHLENSDTVPMSGLSLAYKLDSEKSRGVWHDSAFKGTYMNIVKEFTPFNTQEFHH"
recorded_value = 0.45

[[record]]
protein = "IFF21360 (protein) RLDKPVIKPPFPNGGGLGSLGPDLMSSLPIAAHTTSDWDSDHLPRDCKRLAQSAGFSPLDVDAFNIRFDDCKQQPWVFCRHKDAPLSKSNMTELFGRLPVRMRQYIRHIIALPGQRSAGSAGDNIQMNGDCEITVFIHETGHSLDSHAFDPKHGVPFSNSPVWKDAYDKDTAVTDDYAQTSQQENFAQETVVAVYDKNVKGGGIGKIQPNAQAIRNAYTTLEKYIGDIIIPGGECTHRLENSPAVPKVDSARTRLVAKSEPVGEGLTRIEPIPMGPITLARY"
recorded_value = 0.66

[[record]]
protein = "IFF21362 (protein) GSPDKPEMNPAFDYGRFEAGLRDNLHPTHSTWDYWGPGWIPQSCKDIATSHGLSPNDFTIFNVHYDDCQEGWTFCRHKDAGASEIDMIDIFGRAPVHMRSFIRHLVATPGLHDGAAAFTFSNGDCVVESAPDLSVMLHEMSHSLDWHALPQYPSPFSSSNEWQSNYAQDSNTPTAYGRTNWLEDFAEAGKVGVFDKVVPGGFGSVAGNWGQVFHQYATYQGYLGDTILPGGTCDKRFPNSETVPMAGNSKRMAADLGEKPDNTIKADNMTLIQMRPEIEGQVSICEHQH"
recorded_value = 0.23

[[record]]
protein = "IFF21354 (protein) RLDKPVIKPPFPNGGLGSLGPDLMSSLKVASHTTDDWDKNHLPRDCKSLAQNAGFSPLDVSAFNIHYDDCKSQPWVFCRHKDSPLSKKDMTELFGRMPVRMRQFIRHIIALPGQRSAGSSGDNIQMNGDVEITVFIHETGHSLDSHAFDPKLGAPFSNGKAWTDAYNKDSAVTDDYAQTSQQENFAQETVVSVYDKNVKGGIGKIQPNAQAIRNAYTTLEKYIGNIIIPGGVCTHRLENSPSVPKADSARTRLVPKSEPVGEGLTRIEPIAMGPITPASY"
recorded_value = 0.67

[[record]]
protein = "IFF21334 (protein) ILDKPVIQPNFPGNGLASLGQGLMDNLSPTHSTWDDWGAGWIPQDCKSLVEGAGFSASDVIPFNIHYDDCAQTWTFCRHKDSPLSEITILDIFGRLPVRMRSFVRHLVFIPGNKSAGSSGDNVLMVGAVDVTVFAHEIGHSLDSHAFDPSYGVPFSTGNVWISNYNLDSAVTDPYAQTSQQENFAQETVVSLYDKVVPGGIGTIQPNWQAIYHQYATLEGYIGDVIIPGGTCTHRLTDSPPVQMSSSSKLRRALGPKPHVALSPEVEEIEAIPMKSSITMTSFDAAGKPNGTYVINL"
recorded_value = 0.65

